Recorded activation by entry
assay text: Vibrio cholerae BH1651 luxOD47E, luciferase light induction, confirmatory dose response (AID 624269)
condition notes: Vibrio cholerae BH1651 luxOD47E, luciferase light induction, 6 h; at 35 µM (top of the series)
Just the number please, in %, no unit attached.

Hello, please tell me recorded activation for this one: "CCn1nnnc1NCc1ccc(N2CCCC2)cc1"
66.7

Hello, please tell me recorded activation for this one: "COc1ccccc1NC(=O)COC(=O)c1oc2ccccc2c1C"
0

---

assay text: Vibrio cholerae BH1651 luxOD47E, luciferase light induction, confirmatory dose response (AID 624269)
condition notes: Vibrio cholerae BH1651 luxOD47E, luciferase light induction, 6 h; at 35 µM (top of the series)
# label = MET if activation >= -30% else NOT MET

Answer whether activation of "CCn1c(CC(=O)Nc2cccc(Cl)c2Cl)nnc1SCCOc1ccc(OC)cc1" is greater than or equal to -30%.
NOT MET

Answer whether activation of "CCn1nnc(NCc2ccc(C)cc2)n1" is greater than or equal to -30%.
MET

Answer whether activation of "Cc1c(Cl)cccc1-n1cnc(=O)c2ccccc21" is greater than or equal to -30%.
MET

Answer whether activation of "Cc1ccc(CC(=O)NC2CCCC2)cc1" is greater than or equal to -30%.
MET

Answer whether activation of "CCCn1nnnc1NCc1ccc(N2CCCC2)cc1" is greater than or equal to -30%.
NOT MET

***
Answer whether activation of CCC(C)NC(=O)Cc1ccc(-c2ccccc2)cc1 (stereo not drawn) is greater than or equal to -30%.
NOT MET

Answer whether activation of "CCCn1nnnc1NCc1ccc(C(C)C)cc1" is greater than or equal to -30%.
MET

Answer whether activation of "CCOc1ccc(Nc2ccc3nonc3c2[N+](=O)[O-])cc1" is greater than or equal to -30%.
MET

---

Test system: Vibrio cholerae BH1651 luxOD47E, luciferase light induction, 6 h
assay text: Vibrio cholerae BH1651 luxOD47E, luciferase light induction, confirmatory dose response (AID 624269)
Calls of active or inactive are those of the source. No rule for the calls is given here.
Use one of these outcomes when replying: active, inactive

Sample answers from the record:
Test call for this compound, please: "O=C(Cc1ccc(-c2ccccc2)cc1)NC1CCCC1"
active

Test call for this compound, please: "Cc1ccc2cc3c(NC(=O)c4ccco4)nn(C)c3nc2c1"
inactive

***
Test call for this compound, please: "O=C(Nc1nnc(-c2ccc3c(c2)OCCO3)o1)C1CCCCC1"
active

Test call for this compound, please: "Cc1ccc(OCCNC(=O)c2cccc(C)c2)cc1"
active
